Data origin: patent US6566355B1

The entries below are paired with their reported IC50.
# experimental.system: β-lactamase (Citrobacter freundii)
# Construct: Various β-lactamases can be isolated from penicillin- or cephalosporin-resistant bacterial strains such as; endogenous in cells; host or cells: Citrobacter freundii 1203 (enzyme purified from the crude cell extract, after ampicillin induction when necessary)
# Sequence (P05193 21-381): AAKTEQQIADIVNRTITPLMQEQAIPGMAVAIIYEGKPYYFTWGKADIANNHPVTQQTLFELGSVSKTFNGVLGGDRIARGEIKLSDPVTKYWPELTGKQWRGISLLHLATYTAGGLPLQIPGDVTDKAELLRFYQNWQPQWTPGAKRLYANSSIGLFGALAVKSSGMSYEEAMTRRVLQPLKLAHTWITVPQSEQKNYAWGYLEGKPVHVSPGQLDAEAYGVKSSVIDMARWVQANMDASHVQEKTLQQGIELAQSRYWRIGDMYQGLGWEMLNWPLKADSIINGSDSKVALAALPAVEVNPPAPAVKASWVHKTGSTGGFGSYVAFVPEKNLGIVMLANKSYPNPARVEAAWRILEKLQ
# assay: biochemical
Structures can show the parent of a compound that is named as a salt.
Dear colleague, please return just the value in µM, with no unit written.

N[C@@H](C(=O)N1CC[C@@H]2[C@H]1C(=O)N2S(=O)(=O)O)c1ccc(O)cc1 [6(d)]: 0.5
NC(C(=O)N1CC[C@@H]2[C@H]1C(=O)N2S(=O)(=O)O)c1ccc(O)cc1 (mixture of isomers) [6(s), sodium salt]: 0.584
O=C(/C=C/c1cccs1)N1CC[C@@H]2[C@H]1C(=O)N2S(=O)(=O)O [8(a)]: 0.075

Please turn your attention to the following entry.
Dear colleague, I am looking for the recorded IC50 of the following compound: O=C(NC1CC1)N1CC[C@@H]2[C@H]1C(=O)N2S(=O)(=O)O [17(i), sodium salt]
0.245
